Each recorded value in this set is attributed to patent US20200246316A1.

subject.of.test: CYP2C9 (Homo sapiens, UniProt P11712)
Construct: tissue BD Gentest; host or cells: human liver microsomes
Sequence (P11712 whole entry): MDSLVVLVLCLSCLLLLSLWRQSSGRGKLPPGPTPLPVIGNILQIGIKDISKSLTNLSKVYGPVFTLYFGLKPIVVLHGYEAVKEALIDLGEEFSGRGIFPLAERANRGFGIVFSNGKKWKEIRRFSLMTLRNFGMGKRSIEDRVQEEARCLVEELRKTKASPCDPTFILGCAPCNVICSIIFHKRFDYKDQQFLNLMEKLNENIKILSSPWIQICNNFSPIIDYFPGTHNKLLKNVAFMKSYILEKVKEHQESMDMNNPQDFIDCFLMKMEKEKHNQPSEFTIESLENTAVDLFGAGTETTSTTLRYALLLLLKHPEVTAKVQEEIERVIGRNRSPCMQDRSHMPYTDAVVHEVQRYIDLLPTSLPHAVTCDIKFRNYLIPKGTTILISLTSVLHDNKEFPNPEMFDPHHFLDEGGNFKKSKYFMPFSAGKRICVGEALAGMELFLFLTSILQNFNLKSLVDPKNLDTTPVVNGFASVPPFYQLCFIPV
test.details: CYP inhibition in human liver microsomes
Assay type: in vitro ADME
experimental.setup: human liver microsomes, known substrate of the CYP isoform; read-out: IC50 (μM) CYP 2C9
Counter-ions that a name gives are not always drawn.
attribute.measured: IC50

- compound: "CC1(C)SC(Nc2ccccc2O)=N[C@@H]1C(=O)O [Compound 1, mono-hydrochloride]"
  attribute.measured: "IC50"
  observed.value: "> 100 µM"

----------
test.details: Rat 28-day GLP repeat dose PO study (toxicokinetics)
Format: in vivo
experimental.setup: female, rat, in vivo, po, 2000 mg/kg, Day 14, F, 2000 mg/kg PO
Structures can show the parent of a compound that is named as a salt.
attribute.measured: AUC(0-inf) (µg·h/mL)

- compound: "CC1(C)SC(Nc2ccccc2O)=N[C@@H]1C(=O)O [Compound 1, mono-hydrochloride]"
  unit.label: "µg·h/mL"
  observed.value: 952

----------
test.details: Rat 28-day GLP repeat dose PO study (toxicokinetics)
Type: in vivo
experimental.setup: male, rat, in vivo, po, 500 mg/kg, Day 1, M, 500 mg/kg PO
Method: The vehicle was 0.5% HPMC. There were 15 rats/sex in the control and high dose groups (5/sex for a 14-day recovery period) while the low and mid doses consisted of 10 rats/sex. Satellite groups of rats/sex/group for toxicokinetics were included. Rats in Group 1 (Vehicle Control) were bled once at approximately 1 hour post-dose on those days.
Counter-ions that a name gives are not always drawn.

- compound: "CC1(C)SC(Nc2ccccc2O)=N[C@@H]1C(=O)O [Compound 1, mono-hydrochloride]"
  AUC(0-inf) (µg·h/mL): 275

----------
test.details: Dog 28-day repeat dose PO study
Format: in vivo
experimental.setup: male, beagle, dog, in vivo, po, 250 mg/kg, Day 15, 250 mg/kg PO, M; read-out: Cmax
Counter-ions that a name gives are not always drawn.

- compound: "CC1(C)SC(Nc2ccccc2O)=N[C@@H]1C(=O)O [Compound 1, mono-hydrochloride]"
  Cmax [µg/mL]: 88
